- study-target: TBK1 (Homo sapiens)
- Sequence (Q9UHD2 1-729): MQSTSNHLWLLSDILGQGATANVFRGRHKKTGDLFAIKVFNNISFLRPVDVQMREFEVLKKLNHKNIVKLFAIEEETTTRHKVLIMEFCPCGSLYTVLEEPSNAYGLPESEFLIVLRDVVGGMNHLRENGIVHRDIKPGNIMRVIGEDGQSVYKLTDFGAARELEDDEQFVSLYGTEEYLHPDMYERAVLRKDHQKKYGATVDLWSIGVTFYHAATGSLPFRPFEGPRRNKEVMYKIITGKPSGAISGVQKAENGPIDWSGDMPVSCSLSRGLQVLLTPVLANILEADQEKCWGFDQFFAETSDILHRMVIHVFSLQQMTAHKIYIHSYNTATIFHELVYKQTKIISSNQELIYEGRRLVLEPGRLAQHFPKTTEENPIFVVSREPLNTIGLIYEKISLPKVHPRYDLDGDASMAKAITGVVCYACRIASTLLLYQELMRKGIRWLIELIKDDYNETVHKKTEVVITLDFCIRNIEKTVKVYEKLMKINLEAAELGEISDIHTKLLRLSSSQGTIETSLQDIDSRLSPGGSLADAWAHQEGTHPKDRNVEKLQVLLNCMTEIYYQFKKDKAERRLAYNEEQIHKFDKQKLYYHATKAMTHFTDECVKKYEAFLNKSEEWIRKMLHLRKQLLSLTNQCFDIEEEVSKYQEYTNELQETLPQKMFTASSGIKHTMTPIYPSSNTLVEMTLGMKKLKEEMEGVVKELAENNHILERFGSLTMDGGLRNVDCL
- method-notes: TBK Biochemical Assay
- protocol-conditions: read-out: TBK1 IC50
pIC50: −log10 of the molar value.
test-readout: pIC50

{"molecule": "CC1COCC(C)C1Oc1c(F)cc(-c2ccnc3cc(-c4ccc(C(=O)N(C)C)cc4)oc23)cc1C#N (stereo not shown)", "study-target": "TBK1 (Homo sapiens)", "pIC50": "< 5.30"}

pIC50 reported for this molecule COc1cc(C(=O)N(C)C)ncc1-c1cc2nccc(-c3cnc(OC4CCOCC4)c(C#N)c3)c2o1 : > 7.00

pIC50 reported for this molecule COc1cc(C(=O)N2CC3CN(C)CC3C2)ccc1-c1cc2nccc(-c3ccc(N4CC[C@@H](F)C4)c(C#N)c3)c2o1 (stereo partly shown) : > 7.00

* * *

- study-target: IKKε (Homo sapiens, UniProt Q14164)
- method-notes: IKKe Biochemical Assay
- protocol-conditions: read-out: IKKε IC50
Where a name gives a salt, the structure may show the parent alone.
test-readout: IC50

{"compound": "COc1cc(C(=O)N(C)CCO)cnc1-c1cc2ncc(C3CC3)c(-c3ccc(OC4CCOCC4)c(C#N)n3)c2o1 [Compound 363, hydrochloride]", "test-readout": "IC50", "experimental-result": "> 5000 nM"}
{"compound": "COc1cc(C(=O)N(C)C)ccc1-c1cc2ncc(C)c(-c3ccc(OC4CCOCC4)c(C#N)c3)c2o1 [Compound 269, hydrochloride]", "test-readout": "IC50", "experimental-result": "100 to 1000 nM"}
{"compound": "COc1cc(C(=O)N(C)C)ncc1-c1cc2nccc(-c3ccc(OC4CCNCC4(F)F)c(C#N)c3)c2o1 (centres unmarked) [Compound 418, hydrochloride]", "test-readout": "IC50", "experimental-result": "< 100 nM"}
{"compound": "COc1cc(C(=O)N(C)CCO)cnc1-c1cc2ncc(F)c(-c3ccc(OC4CCOCC4)c(C#N)n3)c2o1 [Compound 354, hydrochloride]", "test-readout": "IC50", "experimental-result": "1000 to 5000 nM"}
{"compound": "COc1cc(C(=O)NNC(=O)OC(C)(C)C)ccc1-c1cc2nccc(-c3ccc(OC4CCOCC4)c(C#N)c3)c2o1 [Compound 67]", "test-readout": "IC50", "experimental-result": "< 100 nM"}

IC50 reported for this compound COc1cc(C(=O)N(C)C)ccc1-c1cc2nccc(-c3ccc(NC4CCOCC4O)c(C#N)c3)c2o1 (centres unmarked) [Compound 82] : < 100 nM

* * *

- study-target: IKKε (Homo sapiens, UniProt Q14164)
- Sequence (Q14164 1-716): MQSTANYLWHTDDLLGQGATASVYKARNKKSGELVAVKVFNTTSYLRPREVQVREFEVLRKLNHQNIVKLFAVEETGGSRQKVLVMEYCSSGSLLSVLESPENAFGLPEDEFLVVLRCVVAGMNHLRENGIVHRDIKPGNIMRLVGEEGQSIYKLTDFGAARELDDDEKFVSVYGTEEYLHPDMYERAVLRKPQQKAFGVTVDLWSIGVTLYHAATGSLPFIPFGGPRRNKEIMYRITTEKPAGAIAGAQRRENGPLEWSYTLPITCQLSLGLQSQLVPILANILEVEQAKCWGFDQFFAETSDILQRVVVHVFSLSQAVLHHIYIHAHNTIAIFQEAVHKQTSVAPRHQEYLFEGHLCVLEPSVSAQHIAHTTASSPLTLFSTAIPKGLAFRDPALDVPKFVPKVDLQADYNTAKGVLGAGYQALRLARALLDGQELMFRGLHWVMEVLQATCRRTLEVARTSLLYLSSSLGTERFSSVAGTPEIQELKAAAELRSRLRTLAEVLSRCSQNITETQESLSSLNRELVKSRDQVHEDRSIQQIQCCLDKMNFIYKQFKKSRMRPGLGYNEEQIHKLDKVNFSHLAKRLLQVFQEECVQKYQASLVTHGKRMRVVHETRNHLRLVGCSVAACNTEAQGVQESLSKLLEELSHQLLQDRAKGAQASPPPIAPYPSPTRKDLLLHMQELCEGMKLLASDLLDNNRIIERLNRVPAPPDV
- method-notes: IKKe Biochemical Assay
- protocol-conditions: read-out: IKKε IC50
pIC50: −log10 of the molar value. Counter-ions that a name gives are not always drawn.
test-readout: pIC50

Field: example entries. Status: answers known.
{"molecule": "COc1cc(C(=O)N2CC[C@H](O)C2)ccc1-c1cc2nccc(-c3ccc(OC4CCOCC4)c(C#N)c3)c2o1 [Compound 14]", "study-target": "IKKε (Homo sapiens, UniProt Q14164)", "test-readout": "pIC50", "experimental-result": "> 7.00"}
{"molecule": "C[C@@H]1COC[C@H](C)[C@H]1Oc1ccc(-c2ccnc3cc(-c4ccc(C(=O)N(C)C)cc4)oc23)cc1C#N (single isomer, unassigned) [Compound 219, hydrochloride]", "study-target": "IKKε (Homo sapiens, UniProt Q14164)", "test-readout": "pIC50", "experimental-result": "6.00 to 7.00"}
{"molecule": "COc1cc(C(=O)N(C)CCO)cnc1-c1cc2ncc(C)c(-c3ccc(OC4CCOCC4)c(C#N)c3)c2o1 [Compound 330]", "study-target": "IKKε (Homo sapiens, UniProt Q14164)", "test-readout": "pIC50", "experimental-result": "5.30 to 6.00"}

pIC50 reported for this molecule COc1cc(C(=O)NC2(CO)CCN(C)C2)ccc1-c1cc2nccc(-c3ccc(OC4CCOCC4)c(C#N)c3)c2o1 (centres unmarked) [Compound 345] : > 7.00

pIC50 reported for this molecule CN(C)C(=O)c1ccc(-c2cc3nccc(-c4ccc(N5CCC(N(C)C6CC6)C5)c(C#N)c4)c3o2)cc1 (centres unmarked) [Compound 179] : 6.00 to 7.00

* * *

- study-target: UniProtKB Q14164
- method-notes: IKKe Biochemical Assay
- protocol-conditions: read-out: IKKε IC50
Structures can show the parent of a compound that is named as a salt.
test-readout: IC50

{"compound": "COc1cc(C(=O)NC2C3COCC32)ccc1-c1cc2nccc(-c3ccc(OC4CCOCC4)c(C#N)c3)c2o1 (stereo not shown)", "IC50": "< 0.1 µM"}
{"compound": "COc1cc(C(=O)NC2CCC(=O)NC2C)ccc1-c1cc2nccc(-c3ccc(OC4CCOCC4)c(C#N)c3)c2o1 (stereo not shown)", "IC50": "< 0.1 µM"}
{"compound": "COc1cc(C(=O)N2CC(O)C2)ccc1-c1cc2nccc(-c3ccc(NC4CCOCC4)c(C#N)c3)c2o1", "IC50": "< 0.1 µM"}

IC50 reported for this compound COc1cc(C(=O)N(C)C)cnc1-c1cc2nccc(-c3ccc(OC4CCN(C)C4)c(C#N)c3)c2o1 (stereo not shown) : 0.1 to 1 µM

IC50 reported for this compound CN(C)C(=O)c1ccc(-c2cc3nccc(-c4ccc(O)c(C#N)c4)c3o2)cc1 : 0.1 to 1 µM

IC50 reported for this compound COc1cc(C(=O)NC2CC(N3CCCC3)C2)ccc1-c1cc2nccc(-c3ccc(OC4CCOCC4)c(C#N)c3)c2o1 (stereo not shown) : < 0.1 µM

IC50 reported for this compound COc1cc(C(=O)N(C)C)cnc1-c1cc2ncc(F)c(-c3ccc(NC4CCOCC4)c(C#N)c3)c2o1 : 0.1 to 1 µM

IC50 reported for this compound CN(C)C(=O)c1ccc(-c2cc3nccc(-c4ccc(N5CC[C@H](N(C)C)C5)c(C#N)c4)c3o2)cc1 : 0.1 to 1 µM

IC50 reported for this compound COc1cc(C(=O)N(C)CC(F)F)ccc1-c1cc2nccc(-c3ccc(OC4CCOCC4)c(C#N)c3)c2o1 : < 0.1 µM

IC50 reported for this compound COc1cc(C(=O)N2CCCC2)ccc1-c1cc2nccc(-c3ccc(OC4CCOCC4)c(C#N)c3)c2o1 : < 0.1 µM

IC50 reported for this compound COc1cc(C(=O)N2C[C@@H]3C[C@H]2CN3C)ccc1-c1cc2nccc(-c3ccc(OC4CCOCC4)c(C#N)c3)c2o1 : < 0.1 µM

IC50 reported for this compound CN(C)C(=O)c1ccc(-c2cc3nccc(-c4ccc(C(C)(C)N5CCOCC5)c(C#N)c4)c3o2)cc1 [Compound 223, hydrochloride] : < 0.1 µM

IC50 reported for this compound N#Cc1cc(-c2ccnc3cc(-c4ccc(C(=O)N[C@@H]5CCNC[C@@H]5F)cc4F)oc23)ccc1NC1CCOCC1 (stereo in doubt) [Compound 252, hydrochloride] : 0.1 to 1 µM

IC50 reported for this compound N#Cc1cc(-c2ccnc3cc(-c4ccc(C(=O)O)cc4)oc23)ccc1Oc1cccc(F)c1 : 1 to 5 µM

IC50 reported for this compound COc1cc(C(=O)N2CC[C@@H](N(C)C)C2)ccc1-c1cc2nccc(-c3ccc(N4CC[C@H](F)C4)c(C#N)c3)c2o1 : < 0.1 µM

IC50 reported for this compound COc1cc(C(=O)NC2C3COCC32)cnc1-c1cc2nccc(-c3ccc(N4CC[C@@H](F)C4)c(C#N)c3)c2o1 (stereo partly shown) : < 0.1 µM

IC50 reported for this compound CN(C)C(=O)c1ccc(-c2cc3nccc(-c4ccc(Oc5ccccc5F)c(C#N)c4)c3o2)cc1 : 0.1 to 1 µM

IC50 reported for this compound COc1cc(C(N)=O)ccc1-c1cc2nccc(-c3ccc(OC4CCOCC4)c(C#N)c3)c2o1 : < 0.1 µM

IC50 reported for this compound COc1cc(C(=O)N2CC[C@@H](N(C)C)C2)ncc1-c1cc2nccc(-c3ccc(N4CC[C@@H](F)C4)c(C#N)c3)c2o1 : < 0.1 µM

IC50 reported for this compound COc1cc(C(=O)NC2CC(CN(C)C)C2)ccc1-c1cc2nccc(-c3ccc(OC4CCOCC4)c(C#N)c3)c2o1 (stereo not shown) : < 0.1 µM

IC50 reported for this compound COc1cc(C(=O)N(C)C)ccc1-c1cc2nccc(-c3ccc(NC4CCCOC4)c(C#N)c3)c2o1 (stereo not shown) : 0.1 to 1 µM

IC50 reported for this compound CN(CCO)C(=O)c1ccc(-c2cc3ncc(Cl)c(-c4ccc(OC5CCOCC5)c(C#N)c4)c3o2)c(F)c1 : > 5 µM

IC50 reported for this compound CN(C)C(=O)c1ccc(-c2cc3nccc(-c4ccc(Oc5cccc(F)c5)c(C#N)c4)c3o2)cc1 : 0.1 to 1 µM

IC50 reported for this compound COc1cc(C(=O)N2C3CCCC2CC3)ccc1-c1cc2nccc(-c3ccc(NC4CCOCC4)c(C#N)c3)c2o1 : < 0.1 µM

IC50 reported for this compound CCCN(C)C(=O)c1ccc(-c2cc3nccc(-c4ccc(OC5CCOCC5)c(C#N)c4)c3o2)c(OC)c1 [Compound 257, hydrochloride] : < 0.1 µM

IC50 reported for this compound COc1cc(C(=O)N2C3COCC2CC(O)C3)cnc1-c1cc2nccc(-c3ccc(OC4CCOCC4)c(C#N)c3)c2o1 (stereo not shown) : < 0.1 µM

IC50 reported for this compound N#Cc1cc(-c2ccnc3cc(-c4ccc(C(=O)O)cc4)oc23)ccc1Oc1ccncc1 : > 5 µM

IC50 reported for this compound COc1cc(C(=O)N2CCCCN2C)cnc1-c1cc2nccc(-c3ccc(OC4CCOCC4)c(C#N)c3)c2o1 : < 0.1 µM
